// reported inhibition for each item listed
Biological target: Protein mono-ADP-ribosyltransferase PARP10 (Homo sapiens)
Sequence (whole entry): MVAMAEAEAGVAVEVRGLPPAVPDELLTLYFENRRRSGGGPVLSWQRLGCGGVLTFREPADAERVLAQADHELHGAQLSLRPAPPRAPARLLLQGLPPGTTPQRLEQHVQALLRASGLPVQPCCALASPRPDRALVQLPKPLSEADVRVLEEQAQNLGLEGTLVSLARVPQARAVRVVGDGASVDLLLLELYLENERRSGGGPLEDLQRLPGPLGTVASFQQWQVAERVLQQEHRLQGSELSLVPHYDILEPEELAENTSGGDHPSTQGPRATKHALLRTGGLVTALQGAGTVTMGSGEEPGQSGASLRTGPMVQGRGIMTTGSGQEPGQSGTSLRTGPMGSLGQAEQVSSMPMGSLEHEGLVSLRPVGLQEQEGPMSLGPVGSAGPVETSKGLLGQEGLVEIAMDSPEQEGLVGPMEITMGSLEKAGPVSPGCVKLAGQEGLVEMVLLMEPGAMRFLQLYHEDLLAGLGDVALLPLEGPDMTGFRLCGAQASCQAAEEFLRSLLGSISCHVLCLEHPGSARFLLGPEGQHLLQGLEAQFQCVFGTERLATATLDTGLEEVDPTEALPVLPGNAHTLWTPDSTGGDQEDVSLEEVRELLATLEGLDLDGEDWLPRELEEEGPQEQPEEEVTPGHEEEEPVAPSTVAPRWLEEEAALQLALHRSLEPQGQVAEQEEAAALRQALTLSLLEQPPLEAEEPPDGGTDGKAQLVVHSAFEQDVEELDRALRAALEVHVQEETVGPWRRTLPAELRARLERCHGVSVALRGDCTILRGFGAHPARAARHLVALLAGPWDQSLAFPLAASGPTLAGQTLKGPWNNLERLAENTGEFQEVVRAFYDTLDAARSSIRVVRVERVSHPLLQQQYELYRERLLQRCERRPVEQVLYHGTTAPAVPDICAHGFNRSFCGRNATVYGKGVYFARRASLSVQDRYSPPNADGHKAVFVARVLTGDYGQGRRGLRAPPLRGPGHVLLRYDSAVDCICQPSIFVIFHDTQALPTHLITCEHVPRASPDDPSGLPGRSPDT
Experiment: Inhibition of N-terminal FLAG-tagged and C-terminal strep-tagged human PARP10 (805 to 1025 residues) expressed in baculovirus infected Sf9 cells assessed as reduction in NAD+-dependent ADP ribosylation using histone as substrate at 1 uM incubated for 1 hr in presence of biotinylated NAD+ and activated DNA by chemiluminescence based microplate reader assay
PROPERTY: inhibition (%)

In [3]: df
Out[3]:
                                item_smiles  test_value
0  O=C(NC[C@@H]1CCCN1C(=O)CCc1nc2ccccc2[nH]c1=O)c1ccc2c(c1)CCCC2=O           0
1  O=C1CCCc2cc(C(=O)N3CCN(C(=O)CCc4nc5ccccc5[nH]c4=O)C[C@H]3CO)ccc21          13
2  O=C(CCc1nc2ccccc2[nH]c1=O)NCC(=O)N1CCN(C(=O)Nc2ccc3c(c2)C(=O)CCC3)CC1          17
3  O=C(CCc1nc2ccccc2[nH]c1=O)NCC(=O)N1CCN(C(=O)COc2cccc3c2CCCC3=O)CC1          13
4  O=C1CCCc2c(OCC(=O)N3CCN(C(=O)CCc4nc5ccccc5[nH]c4=O)C[C@@H]3CO)cccc21          15
5  O=C(COc1ccc2c(c1)C(=O)CCC2)NC1CCN(C(=O)CCc2nc3ccccc3[nH]c2=O)CC1          11
6  O=C1CCCc2cc(C(=O)N3C[C@@H]4C[C@H]3CN4C(=O)CCc3nc4ccccc4[nH]c3=O)ccc21          13
7  CC1(CNC(=O)COc2cccc3c2CCCC3=O)CCN(C(=O)CCc2nc3ccccc3[nH]c2=O)CC1          25
8  CC[C@H]1CN(C(=O)COc2cccc3c2CCCC3=O)CCN1C(=O)CCc1nc2ccccc2[nH]c1=O           1
9  O=C(COc1ccc2c(c1)CCCC2=O)NC[C@@H]1CCCN1C(=O)CCc1nc2ccccc2[nH]c1=O           0

* * *

Target: Protein mono-ADP-ribosyltransferase PARP10 (Homo sapiens) (UniProt Q53GL7)
Sequence (whole entry): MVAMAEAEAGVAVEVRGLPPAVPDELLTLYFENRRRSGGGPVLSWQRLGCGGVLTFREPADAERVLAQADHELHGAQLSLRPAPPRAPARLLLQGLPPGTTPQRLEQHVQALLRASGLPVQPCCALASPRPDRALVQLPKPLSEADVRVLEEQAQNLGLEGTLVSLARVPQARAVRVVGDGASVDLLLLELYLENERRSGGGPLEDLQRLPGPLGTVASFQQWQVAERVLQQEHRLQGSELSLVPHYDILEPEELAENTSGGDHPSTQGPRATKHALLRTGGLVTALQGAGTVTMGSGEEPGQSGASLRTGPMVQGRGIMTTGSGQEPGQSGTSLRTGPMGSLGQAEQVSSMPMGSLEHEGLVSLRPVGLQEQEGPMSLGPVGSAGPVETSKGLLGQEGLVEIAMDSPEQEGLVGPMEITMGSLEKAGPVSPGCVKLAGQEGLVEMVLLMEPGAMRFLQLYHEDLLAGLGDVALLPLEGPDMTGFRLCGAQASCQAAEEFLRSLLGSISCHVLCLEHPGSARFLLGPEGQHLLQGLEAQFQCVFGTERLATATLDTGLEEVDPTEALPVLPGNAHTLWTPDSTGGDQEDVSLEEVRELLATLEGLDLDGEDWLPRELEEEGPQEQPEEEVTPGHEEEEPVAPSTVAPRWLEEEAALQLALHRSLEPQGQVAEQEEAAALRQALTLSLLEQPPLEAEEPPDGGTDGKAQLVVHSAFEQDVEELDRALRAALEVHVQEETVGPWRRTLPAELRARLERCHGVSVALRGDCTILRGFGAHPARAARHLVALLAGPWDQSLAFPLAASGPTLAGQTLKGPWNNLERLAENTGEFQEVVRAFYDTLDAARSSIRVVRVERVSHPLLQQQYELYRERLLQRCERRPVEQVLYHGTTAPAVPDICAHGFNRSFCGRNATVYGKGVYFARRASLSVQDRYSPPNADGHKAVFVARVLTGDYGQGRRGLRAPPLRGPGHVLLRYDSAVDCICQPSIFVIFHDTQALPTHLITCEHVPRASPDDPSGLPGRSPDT
Test: Inhibition of N-terminal FLAG-tagged and C-terminal strep-tagged human PARP10 (805 to 1025 residues) expressed in baculovirus infected Sf9 cells assessed as reduction in NAD+-dependent ADP ribosylation using histone as substrate at 10 uM incubated for 1 hr in presence of biotinylated NAD+ and activated DNA by chemiluminescence based microplate reader assay relative to control
Please mark YES if the recorded inhibition is equal to or greater than 10%, and NO if it falls below.

In [3]: df
Out[3]:
                                item_smiles  category
0  O=C(COc1ccc2c(c1)C(=O)CCC2)NC1CCN(C(=O)CCc2nc3ccccc3[nH]c2=O)CC1       YES
1  CC[C@H]1CN(C(=O)COc2cccc3c2CCCC3=O)CCN1C(=O)CCc1nc2ccccc2[nH]c1=O       YES
2  O=C1CCCc2cc(C(=O)N3C[C@@H]4C[C@H]3CN4C(=O)CCc3nc4ccccc4[nH]c3=O)ccc21       YES
3  O=C(NC[C@@H]1CCCN1C(=O)CCc1nc2ccccc2[nH]c1=O)c1ccc2c(c1)CCCC2=O       YES
4  O=C1CCCc2cc(C(=O)N3CCN(C(=O)CCc4nc5ccccc5[nH]c4=O)C[C@H]3CO)ccc21        NO
5  O=C(CCc1nc2ccccc2[nH]c1=O)NCC(=O)N1CCN(C(=O)Nc2ccc3c(c2)C(=O)CCC3)CC1       YES
6  O=C(COc1ccc2c(c1)CCCC2=O)NC[C@@H]1CCCN1C(=O)CCc1nc2ccccc2[nH]c1=O       YES
7  CC1(CNC(=O)COc2cccc3c2CCCC3=O)CCN(C(=O)CCc2nc3ccccc3[nH]c2=O)CC1       YES
8  O=C1CCCc2c(OCC(=O)N3CCN(C(=O)CCc4nc5ccccc5[nH]c4=O)C[C@@H]3CO)cccc21        NO

* * *

Molecular target: Protein mono-ADP-ribosyltransferase PARP10 (Homo sapiens)
Experiment: Inhibition of N-terminal FLAG-tagged and C-terminal strep-tagged human PARP10 (805 to 1025 residues) expressed in baculovirus infected Sf9 cells assessed as reduction in NAD+-dependent ADP ribosylation using histone as substrate incubated for 1 hr in presence of biotinylated NAD+ and activated DNA by chemiluminescence based microplate reader assay
pIC50: −log10 of the molar value.
PROPERTY: pIC50

                                item_smiles  property  test_value
0  O=C(CCc1nc2ccccc2[nH]c1=O)NCC(=O)N1CCN(C(=O)Nc2ccc3c(c2)C(=O)CCC3)CC1     pIC50        4.55
1  CNC(=O)[C@H](CNC(=O)CCc1nc2ccccc2[nH]c1=O)NC(=O)c1ccc2c(c1)CCCC2=O     pIC50        5.22
2  CC1(CNC(=O)COc2cccc3c2CCCC3=O)CCN(C(=O)CCc2nc3ccccc3[nH]c2=O)CC1     pIC50        5.41
